Molecular target: XIAP BIR3 (Homo sapiens)
Construct: His-BIR3 (241-356, XIAP)
Sequence (P98170 241-356): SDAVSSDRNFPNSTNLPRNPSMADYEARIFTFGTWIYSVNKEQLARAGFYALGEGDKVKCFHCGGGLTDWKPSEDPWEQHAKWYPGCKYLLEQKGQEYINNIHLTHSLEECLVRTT
Test: XIAP-BIR3/SMAC Homogeneous Time Resolved Fluorescence (HTRF) Assay
Assay type: binding
Details: 1 nM N-His-BIR3 (241-356, XIAP), 5 nM fluorescein labeled SMAC peptide; HTRF signal; read-out: XIAP BIR3 IC50
Protocol: A. XIAP-BIR3/SMAC Homogeneous Time Resolved Fluorescence (HTRF) Assay Assays were performed in black, flat-bottom, 384-well plates. […] The reaction was incubated at room temperature for 60 minutes, following which 10 μl of mouse anti-6×His-terbium labeled Fab (Medarex, Cis-bio) was added to the reaction (40 μl) for an additional 30 minute incubation. […] Compounds were dissolved at 3 mM in dimethylsulfoxide (DMSO) and evaluated at eleven serially diluted concentrations. […]
readoutType: IC50 (µM)

CN[C@@H](C)C(=O)N[C@H](C(=O)N1Cc2cc([C@H]3C[C@@H](C(=O)N[C@@H]4CCCc5ccccc54)N(C(=O)[C@@H](NC(=O)[C@H](C)NC)C(C)(C)C)C3)ccc2C[C@H]1C(=O)N[C@H](COCCO)Cc1ccccc1)C(C)(C)C | 0.0103

P = CN[C@@H](C)C(=O)N[C@H](C(=O)N1Cc2cc(C(=O)N[C@H]3C[C@@H](C(=O)N[C@@H]4CCCc5ccccc54)N(C(=O)[C@@H](NC(=O)[C@H](C)NC)C(C)(C)C)C3)ccc2C[C@H]1C(=O)N[C@@H]1CCCc2ccccc21)C1CCCC1
Q = CCN[C@@H](C)C(=O)N[C@H](C(=O)N1Cc2cc(C(=O)N[C@H]3C[C@@H](C(=O)NC4CCCc5ccccc54)N(C(=O)[C@@H](NC(=O)[C@H](C)NC)C(C)(C)C)C3)ccc2C[C@H]1C(=O)NC1CCCc2ccccc21)C(C)(C)C (stereo partly drawn)
Data request: Of the pair P and Q , name the member with the lesser recorded IC50. Your answer should be the label attached to the chosen record.
Data returned: Q

----------
Target: XIAP BIR2-3 (Homo sapiens, UniProt P98170, C202A/C213G)
Construct: His-BIR2-3 (125-356, C202A/C213G, XIAP)
Sequence (P98170 125-356 C202A/C213G): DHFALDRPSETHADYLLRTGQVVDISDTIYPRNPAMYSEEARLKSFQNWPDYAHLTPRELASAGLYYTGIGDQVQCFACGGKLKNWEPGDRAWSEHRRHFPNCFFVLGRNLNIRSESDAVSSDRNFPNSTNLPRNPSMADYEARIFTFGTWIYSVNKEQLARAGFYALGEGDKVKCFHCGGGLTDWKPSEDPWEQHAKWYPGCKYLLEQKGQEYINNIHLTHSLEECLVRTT
Assay: XIAP-BIR2-3 dimeric SMAC Peptide Homogeneous Time Resolved Fluorescence (HTRF) Assay
Type: binding
Conditions: 0.5 nM N-His-BIR2-3 (125-356, C202A/C213G, XIAP), 20 nM fluorescein labeled dimeric SMAC peptide; HTRF signal; read-out: XIAP BIR2-3 IC50
pIC50: −log10 of the molar value.
readoutType: pIC50

a = CC[C@H](NC)C(=O)N[C@H](C(=O)N1Cc2cc(C(=O)N[C@H]3C[C@@H](C(=O)N[C@@H]4CCCc5ccccc54)N(C(=O)[C@@H](NC(=O)[C@H](C)NC)C(C)(C)C)C3)ccc2C[C@H]1C(=O)N[C@@H]1CCCc2ccccc21)C(C)(C)C [Example 3]
b = CN[C@@H](C)C(=O)N[C@H](C(=O)N1Cc2cc([C@H]3C[C@@H](C(=O)N[C@@H]4CCCc5ccccc54)N(C(=O)[C@@H](NC(=O)[C@H](C)NC)C(C)(C)C)C3)ccc2C[C@H]1C(=O)Nc1cc(C)nn1-c1ccccc1)C(C)(C)C [Example 38]
Data request: Problem: Given the entries a and b , determine which has the lower reported pIC50. Output the label that corresponds to your choice.
Data returned: a

----------
Target: XIAP BIR3 (Homo sapiens)
Construct: His-BIR3 (241-356, XIAP)
Test: XIAP-BIR3/SMAC Homogeneous Time Resolved Fluorescence (HTRF) Assay
Type: binding
Details: 1 nM N-His-BIR3 (241-356, XIAP), 5 nM fluorescein labeled SMAC peptide; HTRF signal; read-out: XIAP BIR3 IC50
readoutType: IC50 (nM)

// worked examples, IC50 included
CN[C@@H](C)C(=O)N[C@H](C(=O)N1C[C@@H](c2ccc3c(c2)CN(C(=O)[C@@H](NC(=O)[C@H](C)NC)C(C)(C)C)[C@H](C(=O)N[C@@H]2CCCc4ccccc42)C3)C[C@H]1C(=O)N[C@@H](Cc1ccccc1)C(=O)NCCC(C)C)C(C)(C)C | 8.6
CN[C@@H](C)C(=O)N[C@H](C(=O)N1Cc2cc([C@H]3C[C@@H](C(=O)N[C@@H]4CCCc5ccccc54)N(C(=O)[C@@H](NC(=O)[C@H](C)NC)C(C)(C)C)C3)ccc2C[C@H]1C(=O)N[C@@H](Cc1ccccc1)C(=O)O)C(C)(C)C | 4.6
CN[C@@H](C)C(=O)N[C@H](C(=O)N1C[C@@H](c2ccc3c(c2)CN(C(=O)[C@@H](NC(=O)[C@H](C)NC)C(C)(C)C)[C@H](C(=O)N[C@@H]2CCCc4ccccc42)C3)C[C@H]1C(=O)N[C@@H](Cc1ccccc1)c1noc(C)n1)C(C)(C)C | 7.3
CN[C@@H](C)C(=O)N[C@H](C(=O)N1Cc2cc([C@H]3C[C@@H](C(=O)N[C@@H]4CCCc5ccccc54)N(C(=O)[C@@H](NC(=O)[C@H](C)NC)C(C)(C)C)C3)ccc2C[C@H]1C(=O)N[C@@H](Cc1ccccc1)C(=O)N1CCOCC1)C(C)(C)C | 2
CN[C@@H](C)C(=O)N[C@H](C(=O)N1C[C@@H](c2ccc3c(c2)CN(C(=O)[C@@H](NC(=O)[C@H](C)NC)C(C)(C)C)[C@H](C(=O)N[C@@H]2CCCc4ccccc42)C3)C[C@H]1C(=O)N[C@@H](Cc1ccccc1)C(=O)Nc1cccc(C#N)c1)C(C)(C)C | 6.7

P = CC[C@H](NC)C(=O)N[C@H](C(=O)N1C[C@@H](NC(=O)c2ccc3c(c2)CN(C(=O)[C@@H](NC(=O)[C@H](C)NC)C(C)(C)C)[C@H](C(=O)N[C@@H]2CCCc4ccccc42)C3)C[C@H]1C(=O)N[C@@H]1CCCc2ccccc21)C(C)(C)C
Q = CCN[C@@H](C)C(=O)N[C@H](C(=O)N1C[C@@H](NC(=O)c2ccc3c(c2)CN(C(=O)[C@@H](NC(=O)[C@H](C)NC)C(C)(C)C)[C@H](C(=O)N[C@@H]2CCCc4ccccc42)C3)C[C@H]1C(=O)N[C@@H]1CCCc2ccccc21)C(C)(C)C
Data request: Endpoint returns the identifier whose IC50 is numerically larger, either P or Q . In your reply, give the label of the chosen option.
Data returned: Q

----------
Target: XIAP BIR2-3 (Homo sapiens, UniProt P98170, C202A/C213G)
Construct: His-BIR2-3 (125-356, C202A/C213G, XIAP)
Test: XIAP-BIR2-3 dimeric SMAC Peptide Homogeneous Time Resolved Fluorescence (HTRF) Assay
Type: binding
Details: 0.5 nM N-His-BIR2-3 (125-356, C202A/C213G, XIAP), 20 nM fluorescein labeled dimeric SMAC peptide; HTRF signal; read-out: XIAP BIR2-3 IC50
Method: B. […] Assays were performed in black, flat-bottom, 384-well plates. […] Compounds were dissolved at 3 mM in dimethylsulfoxide (DMSO) and evaluated at eleven serially diluted concentrations. IC50 and Ki values were derived by non-linear regression analysis.
pIC50: −log10 of the molar value.
readoutType: pIC50

Recorded results for 5 compounds are shown here.
CN[C@@H](C)C(=O)N[C@H](C(=O)N1C[C@@H](c2ccc3c(c2)CN(C(=O)[C@@H](NC(=O)[C@H](C)NC)C(C)(C)C)[C@H](C(=O)N[C@@H]2CCCc4ccccc42)C3)C[C@H]1C(=O)N[C@@H](Cc1ccccc1)C(=O)Nc1cccc(-c2cnco2)c1)C(C)(C)C | 8.64
CN[C@@H](C)C(=O)N[C@H](C(=O)N1Cc2cc([C@H]3C[C@@H](C(=O)N[C@@H]4CCCc5ccccc54)N(C(=O)[C@@H](NC(=O)[C@H](C)NC)C(C)(C)C)C3)ccc2C[C@H]1C(=O)N[C@@H]1CCCc2ccccc21)C1CCOCC1 | 9.00
CN[C@@H](C)C(=O)N[C@H](C(=O)N1C[C@@H](c2ccc3c(c2)CN(C(=O)[C@@H](NC(=O)[C@H](C)NC)C(C)(C)C)[C@H](C(=O)N[C@@H]2CCCc4ccccc42)C3)C[C@H]1C(=O)N[C@@H](Cc1ccccc1)C(N)=O)C(C)(C)C | 8.80
CN[C@@H](C)C(=O)N[C@H](C(=O)N1Cc2cc([C@H]3C[C@@H](C(=O)N[C@@H]4CCCc5ccccc54)N(C(=O)[C@@H](NC(=O)[C@H](C)NC)C(C)(C)C)C3)ccc2C[C@H]1C(=O)N[C@@H]1CCCc2cc(OC)ccc21)C(C)(C)C | 8.74
CN[C@@H](C)C(=O)N[C@H](C(=O)N1C[C@@H](c2ccc3c(c2)CN(C(=O)[C@@H](NC(=O)[C@H](C)NC)C(C)(C)SCCO)[C@H](C(=O)N[C@@H]2CCCc4ccccc42)C3)C[C@H]1C(=O)N[C@@H]1CCCc2ccccc21)C(C)(C)C | 8.66

P = CN[C@@H](C)C(=O)N[C@H](C(=O)N1C[C@@H](c2ccc3c(c2)CN(C(=O)[C@@H](NC(=O)[C@H](C)NC)C(C)(C)C)[C@H](C(=O)N[C@@H]2CCCc4ccccc42)C3)C[C@H]1C(=O)N[C@@H](Cc1ccccc1)C(=O)NC1CC1)C(C)(C)C
Q = CN[C@@H](C)C(=O)N[C@H](C(=O)N1Cc2cc([C@H]3C[C@@H](C(=O)N[C@@H](Cc4ccc5ccccc5c4)C(=O)OC)N(C(=O)[C@@H](NC(=O)[C@H](C)NC)C(C)(C)C)C3)ccc2C[C@H]1C(=O)N[C@@H](Cc1ccc2ccccc2c1)C(=O)OC)C(C)(C)C
R = CN[C@@H](C)C(=O)N[C@H](C(=O)N1C[C@@H](c2ccc3c(c2)CN(C(=O)[C@@H](NC(=O)[C@H](C)NC)C(C)(C)C)[C@H](C(=O)N[C@@H]2CCCc4ccccc42)C3)C[C@H]1C(=O)N[C@@H](Cc1ccccc1)C(=O)O)C(C)(C)C
S = CN[C@@H](C)C(=O)N[C@H](C(=O)N1C[C@@H](NC(=O)c2ccc3c(c2)CN(C(=O)[C@@H](NC(=O)[C@@H](NC)C2CC2)C(C)(C)C)[C@H](C(=O)N[C@@H]2CCCc4ccccc42)C3)C[C@H]1C(=O)N[C@@H]1CCCc2ccccc21)C(C)(C)C
Data request: Could you please sort these 4 entries by pIC50 from high to low? Would you mind listing the labels in the order asked for?
Data returned: R, P, S, Q
